MEASUREMENT TARGET: MT2 receptor (Homo sapiens, UniProt P49286)
Sequence (P49286 whole entry): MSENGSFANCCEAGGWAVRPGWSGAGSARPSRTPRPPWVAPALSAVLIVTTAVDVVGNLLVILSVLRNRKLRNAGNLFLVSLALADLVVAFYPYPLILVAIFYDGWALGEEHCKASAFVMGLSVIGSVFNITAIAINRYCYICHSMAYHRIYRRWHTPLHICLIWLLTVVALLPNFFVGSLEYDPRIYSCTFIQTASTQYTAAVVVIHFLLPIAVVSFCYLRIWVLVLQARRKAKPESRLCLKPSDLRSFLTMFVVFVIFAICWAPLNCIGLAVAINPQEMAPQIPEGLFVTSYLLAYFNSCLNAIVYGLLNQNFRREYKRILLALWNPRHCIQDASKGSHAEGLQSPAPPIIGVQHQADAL
EXPERIMENT NOTES: FLIPR Ca2+ mobilization assay, MT2
Type: cell-based
Parameters: expressed in transfected cells; host or cells: COS-7 (monkey kidney fibroblast)
TEST PARAMETERS: Table 2; MT2
Protocol: 1. FLIPR Ca^2+ Mobilization Assay This assay indicates the ability of the novel compounds to activate MT1 and MT2 receptors by measuring downstream events of the activated receptor, in this case intracellular calcium mobilization. 1. Intracellular Ca^2+ Mobilization Assay Using Fluorometric Imaging Plate Reader (FLIPR®) […] Then the intracellular Ca^2+ mobilization assays using the Fluorometric Imaging Plate Reader (FLIPR®) were performed as described above.
Criterion: % Resp of 2-IMT meeting or surpassing 70%. Met: 1 (yes). Not met: 0 (no).

Hi, just wondering whether COc1cc2ccn(C)c(=O)c2cc1OCc1ccc(C(C)(C)C)cc1 [IS526] shows % Resp of 2-IMT of 70% or higher.
1 (yes)

Confirm if % Resp of 2-IMT reported for the compound COc1cc(COc2cc3ccn(C)c(=O)c3cc2OC)cc(OC)c1 [IS042] is 70% or above.
1 (yes)

Given COc1cccc(COc2cc3c(=O)n(C)ccc3cc2OC)c1 [IS521] , state whether its % Resp of 2-IMT is at least 70%.
1 (yes)

hey, is % Resp of 2-IMT for this one >= 70%? Cn1ccc2cc(OC(=O)c3ccccc3)c(OC(=O)c3ccccc3)cc2c1=O [IS039]
0 (no)

Quick check, % Resp of 2-IMT >= 70%? COc1cc(COc2c(OC)ccc3c(=O)n(C)ccc23)cc(OC)c1 [IS528]
0 (no)

API: above_or_equal(metric=% Resp of 2-IMT, cutoff=70%) for item COc1cccc(COc2cc3ccn(C)c(=O)c3cc2OC)c1 [IS044]
1 (yes)

Is % Resp of 2-IMT at least 70%? Consider COc1cc(COc2cc3c(=O)n(C)ccc3cc2OC)cc(OC)c1 [IS523]
0 (no)

Form field: % Resp of 2-IMT at least 70%? Entry: COc1cccc(COc2c(OC)ccc3c(=O)n(C)ccc23)c1 [IS527]
0 (no)

# ---- query compound ----
Identify whether the reported % Resp of 2-IMT of the following compound is 70% or greater: COc1ccc2c(=O)n(C)ccc2c1OCc1ccc(C)cc1 [IS529]
0 (no)

----------
I'd be grateful if you could share measured pEC50 for these entries.
MEASUREMENT TARGET: MT1 receptor (Homo sapiens)
Sequence (P48039 whole entry): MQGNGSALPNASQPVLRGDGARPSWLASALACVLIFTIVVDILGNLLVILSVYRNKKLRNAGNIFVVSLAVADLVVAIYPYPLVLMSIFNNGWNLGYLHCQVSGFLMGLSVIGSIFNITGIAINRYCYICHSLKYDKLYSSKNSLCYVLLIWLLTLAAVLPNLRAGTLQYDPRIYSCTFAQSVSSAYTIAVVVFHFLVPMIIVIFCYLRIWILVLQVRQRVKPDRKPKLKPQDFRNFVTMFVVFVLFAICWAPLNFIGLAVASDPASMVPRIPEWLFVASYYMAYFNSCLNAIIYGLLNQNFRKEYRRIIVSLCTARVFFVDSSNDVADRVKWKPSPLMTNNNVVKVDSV
EXPERIMENT NOTES: FLIPR Ca2+ mobilization assay, MT1
Type: cell-based
Design: expressed in transfected cells; host or cells: COS-7 (monkey kidney fibroblast)
TEST PARAMETERS: Table 2; MT1; read-out: EC50
Numbers only, as −log10 of the molar value.

Use the examples below as a reference point.
"COc1cc(COc2cc3ccn(C)c(=O)c3cc2OC)cc(OC)c1" has a reported pEC50 of 7.92

Input "COc1cc(COc2c(OC)ccc3c(=O)n(C)ccc23)cc(OC)c1" . Output pEC50: 5.15

The reported pEC50 of the compound "COc1cccc(COc2cc3ccn(C)c(=O)c3cc2OC)c1" was 6.79

Entry "COc1cccc(COc2cc3c(=O)n(C)ccc3cc2OC)c1" — recorded pEC50 = 5.73

Could you now consider this next compound?
Query "COc1cc2ccn(C)c(=O)c2cc1OCc1ccc(C(C)(C)C)cc1" yields pEC50 of 5.35
